# Crop plant compatibility in pre-emergence, ZEAMX (damage to corn) per entry
system: corn (ZEAMX, var. Aventura); assay: Pre-emergence crop plant compatibility (Table E1); assay type: in vivo; conditions: dosage 80 g/ha, scored after about 3 weeks, 0% = like control plants
Entry rule: numbers only, all in %.

// known answers, use as guide
Ask: Given the entry FC(F)c1cc(-c2ccccc2Oc2ccc(Cl)cn2)on1 [Example 1-35] , report its measured Crop plant compatibility in pre-emergence, ZEAMX (damage to corn).
Result: 10

Ask: Query: Crop plant compatibility in pre-emergence, ZEAMX (damage to corn); subject: Fc1cc(Cl)cnc1Oc1cccc(F)c1-c1cc(C(F)F)no1 [Example 1-19]
Result: 10

Ask: Reported Crop plant compatibility in pre-emergence, ZEAMX (damage to corn), compound FC(F)c1cc(-c2ccccc2Oc2ncc(Cl)cn2)on1 [US 2016/ 333000 No. 53] : ____
Result: 50

Ask: Bench note: what Crop plant compatibility in pre-emergence, ZEAMX (damage to corn) did Fc1cc(Cl)cnc1Oc1ccccc1-c1cc(C(F)F)no1 [Example 1-36] show?
Result: 20

Ask: # input compound: Fc1cccc(Oc2ccc(Cl)cn2)c1-c1cc(C(F)F)no1 [Example 1-17] ; wanted: its Crop plant compatibility in pre-emergence, ZEAMX (damage to corn)
Result: 0

Next up:
Ask: Need Crop plant compatibility in pre-emergence, ZEAMX (damage to corn) of Fc1cccc(Oc2ncc(Cl)cn2)c1-c1cc(C(F)F)no1 [US 2016/ 333000 No. 144] , thanks.
Result: 30

###

Measured Pre-emergence action against Alopecurus myosuroides (ALOMY) of individual entries
system: Alopecurus myosuroides (ALOMY); experiment: Herbicidal pre-emergence action, test C (Table C9); assay type: in vivo; details: dosage 320 g/ha; visual scoring after about 3 weeks; 100% = plants have died, 0% = like control plants

Ask: Which value of Pre-emergence action against Alopecurus myosuroides (ALOMY) has been reported for "Fc1cc(Cl)cnc1Oc1ccccc1-c1cc(C(F)F)no1" in the records?
Result: 90%

Ask: Give its Pre-emergence action against Alopecurus myosuroides (ALOMY) value. Item: "Cc1cc(C)c(-c2cc(C(F)F)no2)c(Oc2ccccn2)c1"
Result: 90%

Ask: // lookup Pre-emergence action against Alopecurus myosuroides (ALOMY) for "FC(F)c1cc(-c2c(Br)cccc2Oc2ccc(Cl)cn2)on1"
Result: 100%

Further cases:
Ask: # Pre-emergence action against Alopecurus myosuroides (ALOMY) lookup, item "CCc1cccc(Oc2ccc(Cl)cn2)c1-c1cc(C(F)F)no1"
Result: 100%

Ask: // returns reported Pre-emergence action against Alopecurus myosuroides (ALOMY) for input "Fc1cccc(Oc2ccc(Br)cn2)c1-c1cc(C(F)F)no1"
Result: 100%

###

System: Alopecurus myosuroides (ALOMY)
Test: Herbicidal pre-emergence action, test C (Table C9)
Format: in vivo
Conditions: dosage 1280 g/ha; visual scoring after about 3 weeks; 100% = plants have died, 0% = like control plants
From the text: Seeds of mono- and dicotyledonous weed plants were placed in plastic pots in sandy loam soil (doubly sown with one species each of mono- or dicotyledonous weed plants per pot) and covered with soil. […] After about 3 weeks, the effect of the preparations was scored visually in comparison with untreated controls as percentages. […]
Pre-emergence action against Alopecurus myosuroides (ALOMY): recorded values
Numeric answer plus unit only.

Ask: Find Pre-emergence action against Alopecurus myosuroides (ALOMY) (Alopecurus myosuroides (ALOMY)) for the entry "Cc1cccc(Oc2ncc(Cl)cc2F)c1-c1cc(C(F)F)on1"
Result: 100%

Ask: I'm curious: which Pre-emergence action against Alopecurus myosuroides (ALOMY) was measured for "Fc1cccc(Oc2ccc(Br)cn2)c1-c1cc(C(F)F)no1" tested on Alopecurus myosuroides (ALOMY)?
Result: 100%

Ask: Pre-emergence action against Alopecurus myosuroides (ALOMY) of "CCc1cccc(Oc2ccc(Cl)cn2)c1-c1cc(C(F)F)no1" on Alopecurus myosuroides (ALOMY)?
Result: 100%

Ask: API: value(readout=Pre-emergence action against Alopecurus myosuroides (ALOMY), system=Alopecurus myosuroides (ALOMY)) for record "FC(F)c1cc(-c2ccccc2Oc2ccccn2)on1"
Result: 100%

Ask: Record "Fc1ccc(Oc2ncc(Cl)cc2F)c(-c2cc(C(F)F)on2)c1" : what is its Pre-emergence action against Alopecurus myosuroides (ALOMY) with Alopecurus myosuroides (ALOMY)?
Result: 100%

Now for another entry.
Ask: Pre-emergence action against Alopecurus myosuroides (ALOMY) of "Cc1ccc(-c2cc(C(F)F)no2)c(Oc2ccc(Cl)cn2)c1" on Alopecurus myosuroides (ALOMY)?
Result: 90%
